- Test Description: chemical genetic growth profiling, strain panel (AID 1159580);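 also: tested at 20 µM; growth read once vehicle control cultures reached saturation at 30 °C; 1 = growth at the plate median or of vehicle wells; lower values mean less growth of the strain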
- Test Settings: S. cerevisiae deletion strains, growth OD, locus YJR066W, strain TOR1, hits give low values
Among all 5,500 compounds or so, about 2,000 (36%) were called active. Roughly 18% stayed inconclusive and do not appear here. This is one part of the list.

[
  {
    "Molecule": "CCN(CC)CCNC(=O)c1cc(S(C)(=O)=O)ccc1OC",
    "normalized growth": 0.947
  },
  {
    "Molecule": "C[C@H]1[C@H]2CCC3C4CC=C5C[C@@H](N(C)C)CC[C@]5(C)C4CC[C@@]32CN1C (stereo partly specified)",
    "normalized growth": 0.958
  },
  {
    "Molecule": "CCN(CC)CCOc1ccc2c(c1)C(=O)c1cc(OCCN(CC)CC)ccc1-2",
    "normalized growth": 0.965
  },
  {
    "Molecule": "O=C(Nc1ccc(N2CCOCC2)cc1)c1ccc(-n2cccn2)cc1",
    "normalized growth": 1.1
  },
  {
    "Molecule": "CCN(CC)CCOc1ccc(/C(=C(\\Cl)c2ccccc2)c2ccccc2)cc1",
    "normalized growth": 0.982
  },
  {
    "Molecule": "CC/C(=C(\\c1ccccc1)c1ccc(OCCN(C)C)cc1)c1ccccc1",
    "normalized growth": 0.888
  },
  {
    "Molecule": "O=C(CCNNC(=O)c1ccncc1)NCc1ccccc1",
    "normalized growth": 0.961
  },
  {
    "Molecule": "Nc1ccc(C(=O)NCC(=O)O)cc1",
    "normalized growth": 0.928
  },
  {
    "Molecule": "CN(C)CCOC(C)(c1ccccc1)c1ccccn1 (stereo unspecified)",
    "normalized growth": 0.941
  },
  {
    "Molecule": "CC(=O)O[C@H]1C[C@@H](OC(C)=O)C(C)(C)C2C[C@@H](OC(C)=O)[C@@]3(C)C4=CC(=O)O[C@@H](c5ccoc5)[C@]4(C)CCC3[C@]21C (stereo partly specified)",
    "normalized growth": 0.941
  },
  {
    "Molecule": "O=C(NCCSCc1ccco1)Nc1cc(Cl)cc(Cl)c1",
    "normalized growth": 0.824
  }
]

----------
Consider the following compounds and their measured normalized growth readings.
- Test Description: chemical genetic growth profiling, strain panel (AID 1159580)
- Test Settings: S. cerevisiae deletion strains, growth OD, locus YFR010W, strain ubp6, hits give low values
In all, about 5,500 compounds went through this assay and about 2,000 (36%) were called active. Inconclusive results (about 18%) are left out. The list shows a part of the results.
Observed Property: normalized growth

[
  {
    "Compound": "CCCCC1=NC2(CCCC2)C(=O)N1Cc1ccc(-c2ccccc2-c2nn[nH]n2)cc1",
    "Readout Number": 1.02
  },
  {
    "Compound": "CC(=O)O[C@@H]1CC2C(C)(C)C=CC(=O)[C@]2(C)C2CC[C@@]3(C)[C@H](c4ccoc4)OC(=O)C4OC43[C@@]21C (stereo partly specified)",
    "Readout Number": 1.04
  },
  {
    "Compound": "C[C@H]1[C@H]2CCC3C4CC=C5C[C@@H](N(C)C)CC[C@]5(C)C4CC[C@@]32CN1C (stereo partly specified)",
    "Readout Number": 0.997
  },
  {
    "Compound": "Nc1ncn([C@@H]2O[C@H](CO)[C@@H](O)[C@H]2O)c(=O)n1",
    "Readout Number": 0.983
  },
  {
    "Compound": "Cc1c(Nc2ncccc2C(=O)O)cccc1C(F)(F)F",
    "Readout Number": 0.978
  },
  {
    "Compound": "O=C(O)c1ccccc1Nc1ccccc1",
    "Readout Number": 0.989
  }
]

----------
- Test Description: chemical genetic growth profiling, strain panel (AID 1159580)
- Test Settings: S. cerevisiae deletion strains, growth OD, locus YNL006W, strain LST8, hits give low values
In all, about 5,500 compounds went through this assay and about 2,000 (36%) were called active. About 18% were inconclusive and are not listed. The list shows a part of the results.
Consider the following molecules and their measured normalized growth readings.

[
  {
    "Item Smiles": "O=C(NCCSCc1ccco1)Nc1cc(Cl)cc(Cl)c1",
    "normalized growth": 0.951
  },
  {
    "Item Smiles": "S=C(N/N=C\\c1ccc(Cl)cc1)N/N=C\\c1ccc(Cl)cc1",
    "normalized growth": 0.96
  },
  {
    "Item Smiles": "O=C(NCCSCc1cccc(C(F)(F)F)c1)c1ccc(Cl)cc1",
    "normalized growth": 0.967
  },
  {
    "Item Smiles": "N#CC(C#N)=C/C=C(/Sc1ccc(F)c(Cl)c1)c1ccc(Cl)cc1",
    "normalized growth": 0.976
  },
  {
    "Item Smiles": "CCOC(=O)/C(=N/Nc1c(Cl)cccc1Cl)c1csc(N)n1",
    "normalized growth": 0.968
  },
  {
    "Item Smiles": "O=C(NC(=O)c1c(F)cccc1Cl)OCc1ccc(Cl)cc1Cl",
    "normalized growth": 0.983
  }
]

----------
- Test Description: chemical genetic growth profiling, strain panel (AID 1159580);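 also: tested at 20 µM; growth read once vehicle control cultures reached saturation at 30 °C; 1 = growth at the plate median or of vehicle wells; lower values mean less growth of the strain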
- Test Settings: S. cerevisiae deletion strains, growth OD, locus YDR069C, strain doa4, hits give low values
Hit rate of the full screen: of about 5,500 compounds, about 2,000 (36%) were called active. Roughly 18% stayed inconclusive and do not appear here. Some of the results follow.
Entries whose normalized growth is below 1 take 1; entries at or above 1 take -1.

[
  {
    "Molecule": "O=C(NC(=O)c1c(F)cccc1F)Nc1ccc(Cl)cc1",
    "Assigned Label": -1
  },
  {
    "Molecule": "CS(=O)(=O)CCCCN=C=S",
    "Assigned Label": 1
  },
  {
    "Molecule": "Oc1c(I)cc(Cl)c2cccnc12",
    "Assigned Label": 1
  },
  {
    "Molecule": "Cc1ccc2c(Cl)cc(Cl)c(O)c2n1",
    "Assigned Label": -1
  },
  {
    "Molecule": "C=CC(C1=CC(=O)C(OC)=CC1=O)c1ccc(OC)cc1 (stereo not drawn)",
    "Assigned Label": 1
  },
  {
    "Molecule": "O=C1C=CC2=C3c4cc(O)c(O)cc4CC3(O)COC2=C1O (stereo not drawn)",
    "Assigned Label": 1
  },
  {
    "Molecule": "Oc1ccc(Cl)c2cccnc12",
    "Assigned Label": 1
  }
]

----------
- Test Description: chemical genetic growth profiling, strain panel (AID 1159580);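 also: tested at 20 µM; growth read once vehicle control cultures reached saturation at 30 °C; 1 = growth at the plate median or of vehicle wells; lower values mean less growth of the strain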
- Test Settings: S. cerevisiae deletion strains, growth OD, locus YDR054C, strain cdc34, hits give low values
About 2,000 (36%) of roughly 5,500 compounds were called active. Roughly 18% stayed inconclusive and do not appear here. This is one part of the list.
Consider the following molecules and their measured normalized growth readings.

[
  {
    "Item Smiles": "FC(F)(F)c1cccc(NC(=S)Nc2ccccc2)c1",
    "normalized growth": 0.982
  },
  {
    "Item Smiles": "FC(F)(F)c1cccc(NNC(=S)Nc2ccccc2)c1",
    "normalized growth": 0.989
  },
  {
    "Item Smiles": "O=C(NC(=S)Nc1cccc(C(F)(F)F)c1)c1ccc2nonc2c1",
    "normalized growth": 0.94
  },
  {
    "Item Smiles": "Cc1cc(Br)ccc1-n1c(Sc2c([N+](=O)[O-])cc(C(F)(F)F)cc2[N+](=O)[O-])nc2ccccc2c1=O",
    "normalized growth": 0.985
  },
  {
    "Item Smiles": "COC(=O)C1=C(C)NC(C)=C(C(=O)OC)C1c1ccc(Cl)cc1Cl",
    "normalized growth": 0.967
  }
]

----------
- Test Description: chemical genetic growth profiling, strain panel (AID 1159580);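 also: tested at 20 µM; growth read once vehicle control cultures reached saturation at 30 °C; 1 = growth at the plate median or of vehicle wells; lower values mean less growth of the strain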
- Test Settings: S. cerevisiae deletion strains, growth OD, locus YNL322C, strain KRE1, hits give low values
Screen size: about 5,500 compounds; about 2,000 (36%) were called active. Inconclusive results (about 18%) are left out. The list shows a part of the results.

[
  {
    "Item Smiles": "NC(=NS(=O)(=O)c1cc(C(F)(F)F)cc(C(F)(F)F)c1)c1cccs1",
    "normalized growth": 0.977
  },
  {
    "Item Smiles": "O=C(COC(=O)c1ccccc1Nc1ccccc1)c1ccc(Cl)cc1",
    "normalized growth": 0.966
  },
  {
    "Item Smiles": "CC1CCN(C(=O)CC#N)CC1",
    "normalized growth": 0.992
  },
  {
    "Item Smiles": "CCOP(=S)(OCC)SCn1c(=O)oc2cc(Cl)ccc21",
    "normalized growth": 1
  },
  {
    "Item Smiles": "O=C(COC(=O)c1ccccc1Nc1cccc(F)c1)c1ccccc1",
    "normalized growth": 0.981
  },
  {
    "Item Smiles": "Fc1cccc(Cl)c1CSc1nncn1-c1ccc(OCc2ccccc2)cc1",
    "normalized growth": 0.988
  },
  {
    "Item Smiles": "Oc1c(Br)cc(Br)c2cccnc12",
    "normalized growth": 0.0493
  },
  {
    "Item Smiles": "NCCCC[C@H](N[C@@H](CCc1ccccc1)C(=O)O)C(=O)N1CCC[C@H]1C(=O)O",
    "normalized growth": 0.993
  },
  {
    "Item Smiles": "CSc1ccc(/C=C/[N+](=O)[O-])cc1",
    "normalized growth": 0.0528
  },
  {
    "Item Smiles": "COc1cc(CNC(=O)CCCCCCC(C)C)ccc1O",
    "normalized growth": 0.983
  },
  {
    "Item Smiles": "CNc1ncnc2c1ncn2[C@H]1C[C@H](OP(=O)(O)O)[C@@H](COP(=O)(O)O)O1",
    "normalized growth": 1.01
  }
]
